Source listed as patent US9249158B2.

# target.entity: purified recombinant HCMV polymerase (UL54) (Human cytomegalovirus, UniProt P08546)
# Construct: made in house; host or cells: Sf21 insect cells (baculovirus)
# Sequence (P08546 whole entry): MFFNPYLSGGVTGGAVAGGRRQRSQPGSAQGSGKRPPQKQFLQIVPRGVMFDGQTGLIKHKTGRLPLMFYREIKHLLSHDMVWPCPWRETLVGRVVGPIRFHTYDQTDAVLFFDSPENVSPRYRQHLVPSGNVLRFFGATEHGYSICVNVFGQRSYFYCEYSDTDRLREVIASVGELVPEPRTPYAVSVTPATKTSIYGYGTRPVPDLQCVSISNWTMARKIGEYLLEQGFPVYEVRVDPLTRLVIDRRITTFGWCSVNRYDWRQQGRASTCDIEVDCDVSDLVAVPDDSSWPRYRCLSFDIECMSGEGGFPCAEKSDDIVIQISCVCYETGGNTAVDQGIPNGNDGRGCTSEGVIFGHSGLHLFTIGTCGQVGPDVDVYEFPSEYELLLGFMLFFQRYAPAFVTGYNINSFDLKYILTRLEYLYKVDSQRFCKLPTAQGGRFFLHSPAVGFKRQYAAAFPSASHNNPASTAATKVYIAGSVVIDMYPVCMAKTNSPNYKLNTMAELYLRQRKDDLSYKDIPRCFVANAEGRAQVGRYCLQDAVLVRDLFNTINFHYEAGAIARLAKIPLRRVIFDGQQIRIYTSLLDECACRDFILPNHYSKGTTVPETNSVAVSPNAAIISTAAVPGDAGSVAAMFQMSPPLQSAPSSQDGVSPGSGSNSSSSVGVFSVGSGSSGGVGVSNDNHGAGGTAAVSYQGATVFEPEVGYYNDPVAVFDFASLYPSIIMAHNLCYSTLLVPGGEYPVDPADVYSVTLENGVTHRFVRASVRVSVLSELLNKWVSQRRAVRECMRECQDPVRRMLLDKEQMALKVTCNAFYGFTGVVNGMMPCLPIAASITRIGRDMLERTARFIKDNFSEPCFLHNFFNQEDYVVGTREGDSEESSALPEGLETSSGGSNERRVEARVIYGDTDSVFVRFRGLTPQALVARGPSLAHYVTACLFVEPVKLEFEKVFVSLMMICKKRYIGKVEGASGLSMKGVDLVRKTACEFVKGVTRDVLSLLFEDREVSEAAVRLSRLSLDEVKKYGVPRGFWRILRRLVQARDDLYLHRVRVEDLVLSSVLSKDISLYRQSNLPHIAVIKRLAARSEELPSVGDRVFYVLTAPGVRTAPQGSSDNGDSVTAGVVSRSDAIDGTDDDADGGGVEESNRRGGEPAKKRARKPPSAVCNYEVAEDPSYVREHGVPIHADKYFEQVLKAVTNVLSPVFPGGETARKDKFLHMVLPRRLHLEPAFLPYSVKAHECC
# assay.procedure: HCMV Polymerase LANCE TR-FRET Assay
# Format: biochemical
# cond: 2 nM GST-UL54, 37° C. for 30 min, 5% DMSO; read-out: Example 34 IC50
pIC50: −log10 of the molar value.
// reported pIC50 for each item listed
measured.quantity: pIC50

- molecule: "Cc1nc2cnc3c(cc(C(=O)NCc4ccc(Cl)c(O)c4)c(=O)n3CC(=O)N3CC(C)(F)C3)c2n1C [Compound 5046]"
  result.number: 6.72
- molecule: "CC1(C)CN(C(=O)Cn2c(=O)c(C(=O)NCc3ccc(Cl)cc3)cc3c4c(cnc32)-c2ccccc2CO4)C1 [Compound 5012]"
  result.number: 6.80
- molecule: "Cc1nc2cnc3c(cc(C(=O)NCc4ccc(Cl)cc4)c(=O)n3CC(=O)N3CC(F)(CF)C3)c2n1C [Compound 1007]"
  result.number: 7.32
- molecule: "CC1(F)CN(C(=O)Cn2c(=O)c(C(=O)NCc3ccc(Cl)cc3)cc3c4nc5n(c4cnc32)CCC5)C1 [Compound 5004]"
  result.number: 7.11
